Examples of compounds with documented pIC50 follow.
measuredOn: CDK2/Cyclin E complex (Homo sapiens, UniProt P24941)
experimentDescription: CDK2/Cyclin E fluorescence-based microfluidic mobility shift assay (CDK2 Biochemical Caliper Assay)
reportedConditions: read-out: Biochemical CDK2/CyclinE Caliper IC50
pIC50: −log10 of the molar value.

Challenge: // fetch pIC50 given entry COCc1cc2c(Nc3cc([C@@H]4CC[C@H](Oc5cccnc5)C4)[nH]n3)nccn2n1 (single isomer, unassigned)
Response given: 6.60 to 7.00

----------
measuredOn: CDK2/Cyclin E complex (Homo sapiens, UniProt P24941)
experimentDescription: CDK2/Cyclin E fluorescence-based microfluidic mobility shift assay (CDK2 Biochemical Caliper Assay)
reportedConditions: read-out: Biochemical CDK2/CyclinE Caliper IC50
pIC50: −log10 of the molar value.
readoutType: pIC50

# compound, pIC50
rows = [
    ("COCc1cc2c(Nc3cc([C@H]4C[C@@H](OC(=O)NC56CCC(CC5)CC6)CO4)[nH]n3)nccn2n1", "≥ 7.00"),
    ("Cc1cc(CC(=O)Nc2cc([C@H]3C[C@H]3COC(=O)NC(C)C)[nH]n2)on1 (single isomer, unassigned)", "4.00 to 6.00"),
    ("Cc1cc(CC(=O)Nc2cc([C@@H]3CC[C@H](N4CC5(CC5)NC4=O)C3)[nH]n2)on1 (single isomer, unassigned)", "6.00 to 6.60"),
    ("COCc1cc2c(Nc3cc([C@@H]4C[C@H](OC(=O)N5[C@@H](C)CC[C@@H]5C)CO4)[nH]n3)nccn2n1 (single isomer, unassigned)", "≥ 7.00"),
    ("Cc1cc(CC(=O)Nc2cc([C@H]3CC[C@@H](Oc4cncnc4)C3)[nH]n2)on1 (single isomer, unassigned)", "4.00 to 6.00"),
    ("C[C@H](NC(=O)O[C@@H]1CO[C@H](c2cc(NC(=O)c3cc(COC(F)(F)F)nn3C)n[nH]2)C1)C1CC1", "≥ 7.00"),
    ("CC(C)c1ccnnc1OC[C@H]1C[C@H](c2cc(Nc3nccc4ncsc34)n[nH]2)C1", "4.00 to 6.00"),
    ("CC(C)NC(=O)OC[C@H]1C[C@@H](c2cc(NC(=O)c3cc(COC(F)(F)F)nn3C)n[nH]2)C1", "≥ 7.00"),
]

Turning to the following compound.
Challenge: Please indicate recorded pIC50 of `CC(C)NC(=O)O[C@@H]1CC[C@H](c2cc(NC(=O)c3cc(CN4CC(F)(F)C4)nn3C)n[nH]2)C1` measured with CDK2/Cyclin E complex (Homo sapiens, UniProt P24941).
Response given: ≥ 7.00

----------
measuredOn: CDK2/Cyclin E complex (Homo sapiens, UniProt P24941)
experimentDescription: CDK2/Cyclin E fluorescence-based microfluidic mobility shift assay (CDK2 Biochemical Caliper Assay)
reportedConditions: read-out: Biochemical CDK2/CyclinE Caliper IC50
Examples of compounds with documented IC50 follow.

# compound, IC50
data = [
    ("COCc1cc(C(=O)Nc2cc([C@H]3CC[C@@H](Oc4nncc5cnccc45)C3)[nH]n2)n(C)n1 (single isomer, unassigned)", "≤ 100 nM"),
    ("c1cc2ncsc2c(Nc2cc([C@@H]3CC[C@H](Oc4nscc4C4CC4)C3)[nH]n2)n1 (single isomer, unassigned)", "≤ 100 nM"),
    ("CC(C)NC(=O)O[C@H]1CO[C@@H](c2cc(Nc3nccn4nc(COC(C)C)cc34)n[nH]2)C1", "≤ 100 nM"),
]

Challenge: Please indicate recorded IC50 of Cc1cc(CC(=O)Nc2cc([C@@H]3C[C@H](OC(=O)NC(C)C)CO3)[nH]n2)on1 (single isomer, unassigned) measured with CDK2/Cyclin E complex (Homo sapiens, UniProt P24941).
Response given: 100 to 250 nM

Challenge: Please indicate recorded IC50 of `CC1(NC(=O)O[C@H]2CO[C@@H](c3cc(Nc4nccc5nc(C(F)(F)F)cn45)n[nH]3)C2)CC1` measured with CDK2/Cyclin E complex (Homo sapiens, UniProt P24941).
Response given: ≤ 100 nM

Challenge: Please indicate recorded IC50 of COCc1cc(C(=O)Nc2cc([C@@H]3CC[C@H](Oc4cccnc4C(F)F)C3)[nH]n2)n(C)n1 (single isomer, unassigned) measured with CDK2/Cyclin E complex (Homo sapiens, UniProt P24941).
Response given: 1000 to 100000 nM
